# Tested on: HCT-15 colon
# protocol details: NCI tumour cell line growth inhibition, 48 h
measured attribute: GI50

With HCT-15 colon as the test system, `O=C(CC12CC3CC(CC(C3)C1)C2)NCCOCCOCCNC(=O)c1cc2c(o1)C(=O)c1ccccc1C2=O` showed GI50 of 0.867 µM

With HCT-15 colon as the test system, `Nc1ccccc1C#C/C=C\C#Cc1ccc(F)cc1F` showed GI50 of 14.1 µM

With HCT-15 colon as the test system, `CCC(=O)Sc1ccccc1C(=O)Nc1ccc(Cl)cc1` showed GI50 of 7.79 µM

With HCT-15 colon as the test system, `COc1ccc2c(c1)O/C(=C\c1cccc(OCC(=O)Nc3nc4ccccc4s3)c1)C2=O` showed GI50 of 13.9 µM

With HCT-15 colon as the test system, `COc1ccccc1-c1cc2c3c(nc4ccccc42)C(=O)c2cccnc2-c3n1` showed GI50 of 3.55 µM

----------
# TGI listing for each entry below
# Test system: HOP-92 NSCLC
# protocol details: NCI tumour cell line growth inhibition, 48 h

Reference set, count: 5
{"columns": ["compound", "measured attribute", "recorded measurement"],
 "data": [
  ["c1ccc(COc2ccc(C[P+](c3ccccc3)(c3ccccc3)c3ccccc3)cc2)cc1", "TGI", "0.585 µM"],
  ["CN(C)CC1CCC/C(=C\\c2ccc(N(C)C)cc2)C1=O (centres undefined)", "TGI", "9.79 µM"],
  ["NCCC1(N)CCNCC1", "TGI", "> 100 µM"],
  ["CN(NC(=O)c1ccco1)C1=NCCCCN1", "TGI", "> 100 µM"],
  ["c1cc(-c2cscc2-c2ccsc2)cs1", "TGI", "> 100 µM"]
]}

// sample `O=CC1=CCCC2(C1)OCCO2` , its TGI was > 100 µM

// sample `Cn1ncc2cc(-c3cnc(N)c(Cl)c3N3CCC4(CCNC4=O)CC3)ccc21` , its TGI was 82.4 µM

// sample CCOn1cc(C[C@@]2(O)C(=O)OC3[C@@H](O)CO[C@@]32O)c2ccccc21 (some centres undefined) , its TGI was > 100 µM

// sample CC(C)(C)C1CC[C@H]2c3c([nH]c4ccc(Br)cc34)[C@H]3C(=O)N(c4ccccc4)C(=O)[C@H]3[C@H]2C1 (some centres undefined) , its TGI was 78.7 µM

----------
# Test system: DMS 114 small cell lung
# protocol details: NCI tumour cell line growth inhibition, 48 h
measured attribute: TGI (µM)
Field format: number, assumed µM, no unit text.

Reference set, count: 5
{"columns": ["molecule", "readout unit", "TGI"],
 "data": [
  ["[Cu+2].[Cu+2].[O-]c1ccccc1C=Nc1ccccc1[O-].[O-]c1ccccc1C=Nc1ccccc1[O-]", "µM", 5.13],
  ["CC(C)(C)C1CC[C@H]2c3c([nH]c4ccc(Br)cc34)[C@H]3C(=O)N(c4ccccc4)C(=O)[C@H]3[C@H]2C1 (stereo not given in full)", "µM", 69.1],
  ["COC(=O)N1[C@H]2Cc3c(OC)c(C)c(OC)c(OC)c3[C@@H]1/C(=C\\c1cc(OC)c(OC)c(C)c1OC)N(Cc1ccccc1)C2=O", "µM", 35.3],
  ["O=[N+]([O-])c1ccccc1S(=O)c1ccccc1 (stereo not given)", "µM", 51.8],
  ["CC(NC(=O)c1ccccc1)C(=O)N(Cc1ccccc1)Cc1ccccc1 (stereo not given)", "µM", 53.8]
]}

Kindly review the next molecule as well.
With DMS 114 small cell lung as the test system, `CCCCCCCCCCCCCCCC[N+](C)(C)Cc1ccc(C[N+](C)(C)CCCCCCCCCCCCCCCC)cc1` showed TGI of 5.02
